experimental_system: human NMDA receptor GluN1-GluN2A (Homo sapiens, UniProt Q05586+Q12879)
Construct: expressed in transfected cells; host or cells: CHO
Sequence (Q12879 23-1464, other chains not shown): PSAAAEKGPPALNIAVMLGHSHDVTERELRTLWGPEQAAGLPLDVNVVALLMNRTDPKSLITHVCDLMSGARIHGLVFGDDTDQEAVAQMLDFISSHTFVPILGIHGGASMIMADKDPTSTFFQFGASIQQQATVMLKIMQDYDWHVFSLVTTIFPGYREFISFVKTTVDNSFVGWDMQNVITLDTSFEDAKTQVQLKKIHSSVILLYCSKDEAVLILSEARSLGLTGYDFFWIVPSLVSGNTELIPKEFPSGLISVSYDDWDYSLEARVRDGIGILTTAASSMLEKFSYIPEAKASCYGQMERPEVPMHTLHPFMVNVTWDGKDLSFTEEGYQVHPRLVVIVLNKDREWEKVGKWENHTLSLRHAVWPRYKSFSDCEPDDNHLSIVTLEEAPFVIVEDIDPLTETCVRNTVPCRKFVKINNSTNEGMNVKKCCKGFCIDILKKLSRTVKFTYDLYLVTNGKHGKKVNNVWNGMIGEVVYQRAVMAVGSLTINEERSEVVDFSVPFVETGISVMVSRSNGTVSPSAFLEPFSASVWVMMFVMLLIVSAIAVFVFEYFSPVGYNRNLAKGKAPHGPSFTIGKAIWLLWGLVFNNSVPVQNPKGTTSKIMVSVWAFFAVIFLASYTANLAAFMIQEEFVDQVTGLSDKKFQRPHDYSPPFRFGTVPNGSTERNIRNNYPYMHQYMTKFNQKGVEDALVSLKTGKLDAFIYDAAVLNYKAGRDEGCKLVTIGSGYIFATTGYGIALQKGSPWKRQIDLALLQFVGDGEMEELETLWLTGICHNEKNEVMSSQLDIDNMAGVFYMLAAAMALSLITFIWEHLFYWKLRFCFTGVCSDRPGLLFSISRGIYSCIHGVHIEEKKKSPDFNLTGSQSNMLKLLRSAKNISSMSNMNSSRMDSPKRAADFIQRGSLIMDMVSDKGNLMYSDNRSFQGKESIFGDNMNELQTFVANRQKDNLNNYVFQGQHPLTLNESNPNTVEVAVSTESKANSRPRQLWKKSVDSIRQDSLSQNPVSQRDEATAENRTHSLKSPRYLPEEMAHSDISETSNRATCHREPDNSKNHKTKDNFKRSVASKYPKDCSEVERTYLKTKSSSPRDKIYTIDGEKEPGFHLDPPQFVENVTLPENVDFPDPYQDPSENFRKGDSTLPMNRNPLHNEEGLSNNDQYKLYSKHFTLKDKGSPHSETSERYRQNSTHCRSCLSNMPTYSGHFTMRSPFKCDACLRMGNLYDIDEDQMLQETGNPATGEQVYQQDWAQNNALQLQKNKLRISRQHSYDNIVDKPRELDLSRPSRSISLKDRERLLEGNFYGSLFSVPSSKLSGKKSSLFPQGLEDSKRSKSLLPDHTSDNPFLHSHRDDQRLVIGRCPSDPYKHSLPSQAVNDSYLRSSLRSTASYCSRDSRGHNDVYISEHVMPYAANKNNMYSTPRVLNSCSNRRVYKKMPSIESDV
assay_summary: FLIPR calcium assay, test item effect on L-glutamate CRC, GluN1-GluN2A-CHO
Assay type: cell-based
experimental_parameters: operational analysis for allosteric modulators
Where a name gives a salt, the structure may show the parent alone.
Each item that follows carries a reported α, estimated cooperativity term.
measure: α, estimated cooperativity term

[
  {
    "molecule": "CC12CC3CC(C)(C1)CC(N)(C3)C2 [Memantine, memantine hydrochloride]",
    "measure": "α, estimated cooperativity term",
    "assay_result": 0.15
  },
  {
    "molecule": "COc1ccc2c(c1)[C@]13CCCC[C@@H]1[C@H](C2)N(C)CC3 [Dextromethorphan, hydrobromide monohydrate]",
    "measure": "α, estimated cooperativity term",
    "assay_result": 0.25
  },
  {
    "molecule": "CNC1(c2ccccc2Cl)CCCCC1=O (racemic) [(±)-Ketamine, (±)-ketamine hydrochloride]",
    "measure": "α, estimated cooperativity term",
    "assay_result": 0.17
  },
  {
    "molecule": "CCC(=O)C(C[C@H](C)N(C)C)(c1ccccc1)c1ccccc1",
    "measure": "α, estimated cooperativity term",
    "assay_result": 0.22
  }
]
